# SYSTEM_UNDER_TEST: βAR-m23 (Meleagris gallopavo, UniProt P07700, A282L/C116L/F327A/F338M/M90V/R68S/Y227A)
# Sequence (P07700 34-424 R68S/M90V/C116L/Y227A/A282L/F327A/F338M): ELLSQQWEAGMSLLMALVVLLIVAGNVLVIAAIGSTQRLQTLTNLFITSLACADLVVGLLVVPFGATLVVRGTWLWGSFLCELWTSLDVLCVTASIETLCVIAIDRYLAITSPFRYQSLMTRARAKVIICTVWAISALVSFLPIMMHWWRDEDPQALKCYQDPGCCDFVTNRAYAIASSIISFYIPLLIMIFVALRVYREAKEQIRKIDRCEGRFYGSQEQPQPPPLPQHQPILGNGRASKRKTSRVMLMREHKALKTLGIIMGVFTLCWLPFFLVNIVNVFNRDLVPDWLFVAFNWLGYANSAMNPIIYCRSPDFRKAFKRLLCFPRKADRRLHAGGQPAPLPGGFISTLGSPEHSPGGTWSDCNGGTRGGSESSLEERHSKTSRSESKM
# ASSAY_INFO: biochemical
pEC50: −log10 of the molar value. Counter-ions that a name gives are not always drawn.
ASSAY_ENDPOINT: pEC50

[[record]]
compound = "C=CCc1ccccc1OC[C@@H](O)CNC(C)C [alprenolol, (−) alprenolol tartrate salt]"
reported_measurement = 6.95

